src = paper PMC12051030

- system: His6‐FraB (Salmonella FraB deglycase) (Salmonella enterica subsp. enterica serovar Typhimurium, UniProt Q8ZLD0)
- Sequence (Q8ZLD0 entry or part of it): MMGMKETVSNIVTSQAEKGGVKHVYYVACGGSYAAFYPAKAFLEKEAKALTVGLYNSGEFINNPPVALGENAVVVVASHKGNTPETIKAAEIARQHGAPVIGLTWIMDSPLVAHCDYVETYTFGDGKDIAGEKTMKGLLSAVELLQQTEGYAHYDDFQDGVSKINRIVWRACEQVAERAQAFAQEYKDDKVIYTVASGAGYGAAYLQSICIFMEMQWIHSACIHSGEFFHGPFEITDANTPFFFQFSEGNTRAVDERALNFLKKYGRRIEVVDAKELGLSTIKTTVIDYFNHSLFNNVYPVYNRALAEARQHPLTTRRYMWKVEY
- testDetails: FraB-G6PD coupled assay, Michaelis–Menten analysis for K I and mode of inhibition
- Assay type: biochemical
- statedConditions: IC50 (IC50 versus [S]/Km plots), Trial 2; 6-P-F-Asp 15.7 µM, S/Km 0.37381; unit from Fig. S11 axis
recordedEndpoint: IC50 (µM)
# unit: µM | format: bare number

Summary for this compound, Fc1ccc(-c2nn3c(-c4ccccn4)nnc3s2)cc1 : IC50 is 44.8

###

- system: UniProtKB Q8ZLD0
- testDetails: FraB-G6PD coupled assay, Michaelis–Menten analysis for K I and mode of inhibition
- Type: biochemical
- statedConditions: K I, from Michaelis–Menten analysis of FraB at different inhibitor concentrations; average and standard error from two measurements
recordedEndpoint: pKi
For clarity, pKi is expressed as the negative log10 of concentration in mol/L.

Record Fc1ccc(-c2nn3c(-c4ccccn4)nnc3s2)cc1 has UniProtKB Q8ZLD0 pKi equal to 4.55

###

- system: His6‐FraB (Salmonella FraB deglycase) (Salmonella enterica subsp. enterica serovar Typhimurium, UniProt Q8ZLD0)
- testDetails: FraB-G6PD coupled assay, Michaelis–Menten analysis for K I and mode of inhibition
- Assay type: biochemical
- statedConditions: Trial 1; 6-P-F-Asp 750 µM, S/Km 17.85714; unit from Fig. S11 axis; read-out: IC50 (IC50 versus [S]/Km plots)
recordedEndpoint: IC50 (µM)
# unit: µM | format: bare number

Summary for this compound, O=c1[nH][nH]c(=S)n1Cc1ccccc1 : IC50 is 20.1

Summary for this compound, Cc1cccc(Cl)c1-n1sc(=O)n(CC2CC2)c1=O : IC50 is 4.2959

Summary for this compound, c1ccc(-c2nnc3sc(C4COc5ccccc5O4)nn23)nc1 (centres unmarked) : IC50 is 33.7

Summary for this compound, CC(C)Cc1cc(-c2nn3c(-c4ccccc4Cl)nnc3s2)n[nH]1 : IC50 is 19.5

Summary for this compound, O=c1sn(-c2ccccc2C(F)(F)F)c(=O)n1CC1CC1 : IC50 is 1.51

###

- system: His6‐FraB (Salmonella FraB deglycase) (Salmonella enterica subsp. enterica serovar Typhimurium, UniProt Q8ZLD0)
- testDetails: FraB-G6PD coupled assay, Michaelis–Menten analysis for K I and mode of inhibition
- Format: biochemical
- statedConditions: average (±SE); from 1/IC50 versus v o/V max plots
Label True when K IU/K IC ratio is at or above 0.9; anything below gets False.

IN: Check this compound for K IU/K IC ratio at or above 0.9: O=c1[nH][nH]c(=S)n1Cc1ccccc1
OUT: False

IN: Check this compound for K IU/K IC ratio at or above 0.9: c1ccc(-c2nnc3sc(C4COc5ccccc5O4)nn23)nc1 (centres unmarked)
OUT: True

IN: Check this compound for K IU/K IC ratio at or above 0.9: Fc1ccc(-c2nn3c(-c4ccccn4)nnc3s2)cc1
OUT: False

IN: Check this compound for K IU/K IC ratio at or above 0.9: Cc1cccc(Cl)c1-n1sc(=O)n(CC2CC2)c1=O
OUT: True

###

- system: UniProt Q8ZLD0
- testDetails: FraB-G6PD coupled assay, IC50 determination
- Format: biochemical
- statedConditions: 0.25 mM 6‐P‐F‐Asp; mean and standard error from two measurements; read-out: IC50
- Excerpt: The substrate for FraB, 6‐P‐F‐Asp, was synthesized as previously described. FraB activity was monitored as described previously, with the following changes. […] NADH generation was monitored using either absorbance (340 nm) or fluorescence (350 nm excitation, 450 nm emission) and with either an INFINITE M1000 PRO (Tecan, Mannedorf, Switzerland) or Synergy H1 (Biotek, Winooski, VT, USA) plate reader. Absorbance/fluorescence was plotted against time and slopes were obtained by linear regression analyses. […]
Labelling: IC50 reported below 20 µM becomes y; at or above becomes n.

IN: For Cc1cccc(Cl)c1-n1sc(=O)n(CC2CC2)c1=O , is the recorded IC50 below the cut-off of 20 µM?
OUT: y

IN: For c1ccc(-c2nnc3sc(C4COc5ccccc5O4)nn23)nc1 (centres unmarked) , is the recorded IC50 below the cut-off of 20 µM?
OUT: n

IN: For CC(C)Cc1cc(-c2nn3c(-c4ccccc4Cl)nnc3s2)n[nH]1 , is the recorded IC50 below the cut-off of 20 µM?
OUT: y

IN: For O=c1sn(-c2ccccc2C(F)(F)F)c(=O)n1CC1CC1 , is the recorded IC50 below the cut-off of 20 µM?
OUT: y

IN: For O=c1[nH][nH]c(=S)n1Cc1ccccc1 , is the recorded IC50 below the cut-off of 20 µM?
OUT: n
